Target: T1, recombinant AdV5 hexon protein (Human adenovirus C serotype 5 (HAdV-5), UniProt P04133)
T1 construct: source: bought: AbD Serotech
T1 sequence (P04133 whole entry): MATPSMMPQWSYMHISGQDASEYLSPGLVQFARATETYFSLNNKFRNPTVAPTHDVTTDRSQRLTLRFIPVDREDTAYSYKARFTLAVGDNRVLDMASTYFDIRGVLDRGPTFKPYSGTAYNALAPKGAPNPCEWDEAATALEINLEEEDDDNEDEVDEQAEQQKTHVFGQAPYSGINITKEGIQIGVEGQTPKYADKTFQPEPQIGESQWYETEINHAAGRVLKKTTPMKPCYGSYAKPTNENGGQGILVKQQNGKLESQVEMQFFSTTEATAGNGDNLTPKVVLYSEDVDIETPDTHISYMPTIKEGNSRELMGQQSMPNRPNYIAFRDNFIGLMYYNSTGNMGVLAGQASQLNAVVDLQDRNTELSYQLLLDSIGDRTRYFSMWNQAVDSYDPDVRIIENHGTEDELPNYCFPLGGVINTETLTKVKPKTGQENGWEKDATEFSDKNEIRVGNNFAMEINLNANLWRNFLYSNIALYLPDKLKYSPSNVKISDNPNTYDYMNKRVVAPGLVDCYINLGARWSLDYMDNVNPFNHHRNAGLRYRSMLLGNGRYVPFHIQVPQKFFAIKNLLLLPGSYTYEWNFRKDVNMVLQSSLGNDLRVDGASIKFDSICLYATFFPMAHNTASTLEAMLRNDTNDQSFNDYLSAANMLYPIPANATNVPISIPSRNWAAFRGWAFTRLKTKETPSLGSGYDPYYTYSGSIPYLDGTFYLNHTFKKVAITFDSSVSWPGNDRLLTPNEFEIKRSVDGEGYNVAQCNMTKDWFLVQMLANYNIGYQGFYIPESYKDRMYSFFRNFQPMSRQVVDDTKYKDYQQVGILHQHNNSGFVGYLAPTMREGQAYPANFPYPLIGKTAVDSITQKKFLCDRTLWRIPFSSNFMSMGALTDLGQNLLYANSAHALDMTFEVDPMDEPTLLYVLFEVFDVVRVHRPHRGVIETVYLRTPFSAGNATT
Test: SPR
Details: both partners purified
measured endpoint: Kd (nM)
API: value field is a number in nM; no unit string.

// lookup Kd for h9C12 Fab G53P (Fab, V domains shown, source: HEK293E, transiently co-transfected, purified (CaptureSelect CH1, SEC Superdex 75)) VH: VQLKQSGPGLLQPSQRLSITCTVSGFSLGRYGVHWIRQSPGKGLEWLGVIWRPGTTDYNAVFMSRLSINKDDSKSQVFFTMNSLRPDDTAIYYCARQGSNFPLAYWGQGTLVTVSA VL: NIVMTQTPKFLLVSIGDSITITCKASQSVTNDAAWYQKKPGQSPQLLIYQASTRYTGVPDRFSGSGYGTDFTFTISAVQAEDLAVYFCHQDYSSPLTFGAGTKLELK
330

// lookup Kd for h9C12 Fab T55S (Fab, V domains shown, source: HEK293E, transiently co-transfected, purified (CaptureSelect CH1, SEC Superdex 75)) VH: VQLKQSGPGLLQPSQRLSITCTVSGFSLGRYGVHWIRQSPGKGLEWLGVIWRGGSTDYNAVFMSRLSINKDDSKSQVFFTMNSLRPDDTAIYYCARQGSNFPLAYWGQGTLVTVSA VL: NIVMTQTPKFLLVSIGDSITITCKASQSVTNDAAWYQKKPGQSPQLLIYQASTRYTGVPDRFSGSGYGTDFTFTISAVQAEDLAVYFCHQDYSSPLTFGAGTKLELK
1.2

// lookup Kd for 9C12 Fab (original mouse format, SPR) (Fab, V domains shown, also called mouse WT 9C12; source: gene fragment synthesized as cDNA; host stated only for the h9C12 variants (HEK293E)) VH: VQLKQSGPGLLQPSQRLSITCTVSGFSLGRYGVHWIRQSPGKGLEWLGVIWRGGTTDYNAVFMSRLSINKDDSKSQVFFTMNSLRPDDTAIYYCARQGSNFPLAYWGQGTLVTVSA VL: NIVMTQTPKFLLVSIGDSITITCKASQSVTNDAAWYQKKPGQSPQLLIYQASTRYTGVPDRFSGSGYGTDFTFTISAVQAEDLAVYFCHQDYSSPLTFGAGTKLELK
1

// lookup Kd for h9C12 Fab G98C/S99H (Fab, V domains shown, source: HEK293E, transiently co-transfected, purified (CaptureSelect CH1, SEC Superdex 75)) VH: VQLKQSGPGLLQPSQRLSITCTVSGFSLGRYGVHWIRQSPGKGLEWLGVIWRGGTTDYNAVFMSRLSINKDDSKSQVFFTMNSLRPDDTAIYYCARQCHNFPLAYWGQGTLVTVSA VL: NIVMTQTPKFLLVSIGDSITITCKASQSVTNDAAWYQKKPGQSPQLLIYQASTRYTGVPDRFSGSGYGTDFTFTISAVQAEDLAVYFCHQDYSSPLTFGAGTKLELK
288

// lookup Kd for h9C12 Fab W51E (Fab, V domains shown, source: HEK293E, transiently co-transfected, purified (CaptureSelect CH1, SEC Superdex 75)) VH: VQLKQSGPGLLQPSQRLSITCTVSGFSLGRYGVHWIRQSPGKGLEWLGVIERGGTTDYNAVFMSRLSINKDDSKSQVFFTMNSLRPDDTAIYYCARQGSNFPLAYWGQGTLVTVSA VL: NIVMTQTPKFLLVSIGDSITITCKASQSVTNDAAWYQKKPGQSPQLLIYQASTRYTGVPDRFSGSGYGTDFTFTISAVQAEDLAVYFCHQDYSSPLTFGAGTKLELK
16900
